experimental-system: T1, His-tagged human TIGIT (human, UniProt Q495A1 22-141)
T1 construct: SPR analyte; also called human TIGIT protein; not shown: His tag
T1 sequence: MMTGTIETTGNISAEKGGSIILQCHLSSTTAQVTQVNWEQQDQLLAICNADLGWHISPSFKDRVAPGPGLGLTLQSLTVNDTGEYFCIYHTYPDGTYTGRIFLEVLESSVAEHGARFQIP
method: SPR experiment 2, IgG from HEK293 supernatant captured
For each of the binders below, state its koff.

Request: Which koff is reported for this binder? huTIGIT-6-4 (antibody, human IgG1, kappa, V domains shown, Humanized IgG; also called 6VH6.M7 + 6VL1.M1) VH: QVQLVQSGAEVKKPGASVKVSCKASGYTFTENAMHWVRQAPGQRLEWIGGINPNNAGTSYSQKFQGRATLTVDTSASTAYMELSSLRSEDTAVYYCTRSSYYRYDLDYWGQGTTVTVSS VL: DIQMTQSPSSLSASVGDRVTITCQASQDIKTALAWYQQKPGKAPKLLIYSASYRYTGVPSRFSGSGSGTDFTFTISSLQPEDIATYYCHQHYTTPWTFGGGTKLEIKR
Result: 0.00023 s⁻¹

Request: Fill in: koff of huTIGIT-6-1 (antibody, human IgG1, kappa, V domains shown, Humanized IgG; also called 6VH6.M4 + 6VL1.M1) VH: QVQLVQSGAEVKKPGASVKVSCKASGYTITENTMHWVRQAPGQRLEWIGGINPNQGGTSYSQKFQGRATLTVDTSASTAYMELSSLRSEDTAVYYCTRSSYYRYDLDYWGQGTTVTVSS VL: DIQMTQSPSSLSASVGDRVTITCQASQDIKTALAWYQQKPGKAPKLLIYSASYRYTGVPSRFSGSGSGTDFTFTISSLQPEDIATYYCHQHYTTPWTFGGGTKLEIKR is ___
Result: 9.8e-05 s⁻¹

Request: Requested read-out: koff. Entry: huTIGIT-6-3 (antibody, human IgG1, kappa, V domains shown, Humanized IgG; also called 6VH6.M6 + 6VL1.M1) VH: QVQLVQSGAEVKKPGASVKVSCKASGYTFTENAMHWVRQAPGQRLEWIGGINPNQGGTSYSQKFQGRATLTVDTSASTAYMELSSLRSEDTAVYYCTRSSYYRYDLDYWGQGTTVTVSS VL: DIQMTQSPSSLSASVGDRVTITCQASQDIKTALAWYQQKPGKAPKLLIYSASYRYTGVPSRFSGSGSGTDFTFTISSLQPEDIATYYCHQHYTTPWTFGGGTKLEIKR
Result: 0.00017 s⁻¹
